cytotoxicity at 70.5 h values by entry
assay: Human HepG2 cell viability assay in 384 well format; assay type: toxicity, cell-based; parameters: dose 125 nL, time 70.5 hour; concentration not given beside the values; details: HepG2 cells, read-out: Inhibition

- Compound: "CNS(=O)(=O)CC(=O)N(Cc1c(F)cccc1F)C1CCCC1"
  cytotoxicity at 70.5 h, %: 1.88
- Compound: "COc1ccc(-n2ncc(C(C)NC3Cc4ccccc4C3)c2C)cc1 (centres undefined)"
  cytotoxicity at 70.5 h, %: 5.61
- Compound: "CCc1ncnc(N2CCOCC2CCO)c1F (centres undefined)"
  cytotoxicity at 70.5 h, %: -2.27
- Compound: "Cn1cc(N2CCCC(Nc3ccc4c(c3)NC(=O)CC4)C2=O)cn1 (centres undefined)"
  cytotoxicity at 70.5 h, %: -1.14
- Compound: "COc1ccc(NC(=O)C(C)n2cncn2)cn1 (centres undefined)"
  cytotoxicity at 70.5 h, %: -2.08
- Compound: "CCN1CC(C(=O)NCc2nn(CC)c3ccccc23)CCC1=O (centres undefined)"
  cytotoxicity at 70.5 h, %: 10.8
- Compound: "Cn1cc(CN2CCC3(CCN(c4cnn(C)c4)C3=O)C2)cn1 (centres undefined)"
  cytotoxicity at 70.5 h, %: -10.8
- Compound: "N#Cc1ccc(SCCC(=O)O)cc1"
  cytotoxicity at 70.5 h, %: -7.41
- Compound: "O=C(c1ncccn1)N1C[C@@H]2CN(CC3CC3)CCO[C@@H]2C1"
  cytotoxicity at 70.5 h, %: -13.4
- Compound: "CCS(=O)(=O)NCCCNCc1c(C)nn(C)c1N(C)C"
  cytotoxicity at 70.5 h, %: 21.5
- Compound: "CN(c1ccc(-c2nc(C3CC3)no2)cn1)C1CCOCC1"
  cytotoxicity at 70.5 h, %: -3.42
- Compound: "CCCc1ccc2oc(C(=O)N3CCN(CCOC)CC3)c(C)c2c1"
  cytotoxicity at 70.5 h, %: -2.68
- Compound: "Cc1nn(C)c2ncc(NC(=O)N3CCCCCC3)cc12"
  cytotoxicity at 70.5 h, %: -4.95
- Compound: "Cc1c(C)c2c(c(C)c1O)CC[C@](C)(C(=O)O)O2 [(R)-TROLOX]"
  cytotoxicity at 70.5 h, %: -0.808
- Compound: "COc1ncc(C2(O)CCN(Cc3ccccc3O)CC2)c(OC)n1"
  cytotoxicity at 70.5 h, %: 7.32
- Compound: "CCN(Cc1cc(Cl)c(O)c(OC)c1)Cc1nc(COC)no1"
  cytotoxicity at 70.5 h, %: -4.93
- Compound: "Cc1ccc(N2CCC3(CC2)CNC(=O)CO3)nn1"
  cytotoxicity at 70.5 h, %: -4.26
- Compound: "CC(C)=CCN1CCc2onc(-c3ccc(F)c(F)c3)c2C1"
  cytotoxicity at 70.5 h, %: -11.7
- Compound: "O=C(NCCOc1ccc(Cl)cn1)NCCc1ccccn1"
  cytotoxicity at 70.5 h, %: -3.16
- Compound: "OCC1CCCCN1CCn1ccnc1-c1nc2ccccc2[nH]1 (centres undefined)"
  cytotoxicity at 70.5 h, %: -2.11
- Compound: "Cc1cc(C)c2[nH]c(C(=O)NCCN3CCOC3=O)c(C)c2c1"
  cytotoxicity at 70.5 h, %: 1.29
- Compound: "CC(NCc1ccc(F)cc1)c1ccc(S(C)(=O)=O)cc1 (centres undefined)"
  cytotoxicity at 70.5 h, %: -7.76
- Compound: "CCC(=O)N1CCCCC[C@@H]2[C@@H]1[C@H](c1cccc(F)c1)CN2C"
  cytotoxicity at 70.5 h, %: 16.4
- Compound: "Cc1nc(CN2CCN(C(=O)COCc3ccccc3)CC2)no1"
  cytotoxicity at 70.5 h, %: -9.26
